FYI, the data here is from patent US20230071371A1.

Documented EC50 Creluc across a set of binders
biological target: human GLP-1R (human, UniProt P43220 24-463); assay: cell-based or functional assay
Bridges are numbered along the chain shown (N, C = ends). Where no end group is shown, it is not given here. [ ]: non-standard residue; d: D form. staple K4 = not defined here; staple K5 = not defined here; Aib = CC(C)(N)C(=O)O
Numeric answer only, unit nM assumed.

Record excerpt, results attached:
>>> print(df.to_string())
                                     binder  result_number
0  YXEGTFHSDYDIYKDKQAALKFVAWLLAGGPSSGAPPPS (staple K4 on Lys 14, 21; Aib 2; Nle 20) [Conjugate 167]           18.8
1  YXEGTFTSDYSIYKDKQAALKFVAWLLAGGPSSGAPPPS (staple K5 on Lys 14, 21; Aib 2; D-Ser 8, 11; Nle 20) [Conjugate 170]           3.74
2  Y[Aib]EGTFHSDYDIYKDKQAA[Aib]KFVQWLLAGGPSSGAPPPS (linker 14-21 via staple K5; reading uncertain) [Conjugate 166]           83.9

Turning now to a further binder:
GET /value?item= Y[Aib]EGTFHSDYDIYKDKQAA[Aib]KFVQWLLAGGPSSGAPPPS (linker 14-21 via staple K4; reading uncertain) [Conjugate 165] &field=EC50 Creluc returns 13.8
